Reference source for all entries: patent US12624044B2

- test-system: SMARCA2 (Homo sapiens)
- Sequence (P51531 whole entry): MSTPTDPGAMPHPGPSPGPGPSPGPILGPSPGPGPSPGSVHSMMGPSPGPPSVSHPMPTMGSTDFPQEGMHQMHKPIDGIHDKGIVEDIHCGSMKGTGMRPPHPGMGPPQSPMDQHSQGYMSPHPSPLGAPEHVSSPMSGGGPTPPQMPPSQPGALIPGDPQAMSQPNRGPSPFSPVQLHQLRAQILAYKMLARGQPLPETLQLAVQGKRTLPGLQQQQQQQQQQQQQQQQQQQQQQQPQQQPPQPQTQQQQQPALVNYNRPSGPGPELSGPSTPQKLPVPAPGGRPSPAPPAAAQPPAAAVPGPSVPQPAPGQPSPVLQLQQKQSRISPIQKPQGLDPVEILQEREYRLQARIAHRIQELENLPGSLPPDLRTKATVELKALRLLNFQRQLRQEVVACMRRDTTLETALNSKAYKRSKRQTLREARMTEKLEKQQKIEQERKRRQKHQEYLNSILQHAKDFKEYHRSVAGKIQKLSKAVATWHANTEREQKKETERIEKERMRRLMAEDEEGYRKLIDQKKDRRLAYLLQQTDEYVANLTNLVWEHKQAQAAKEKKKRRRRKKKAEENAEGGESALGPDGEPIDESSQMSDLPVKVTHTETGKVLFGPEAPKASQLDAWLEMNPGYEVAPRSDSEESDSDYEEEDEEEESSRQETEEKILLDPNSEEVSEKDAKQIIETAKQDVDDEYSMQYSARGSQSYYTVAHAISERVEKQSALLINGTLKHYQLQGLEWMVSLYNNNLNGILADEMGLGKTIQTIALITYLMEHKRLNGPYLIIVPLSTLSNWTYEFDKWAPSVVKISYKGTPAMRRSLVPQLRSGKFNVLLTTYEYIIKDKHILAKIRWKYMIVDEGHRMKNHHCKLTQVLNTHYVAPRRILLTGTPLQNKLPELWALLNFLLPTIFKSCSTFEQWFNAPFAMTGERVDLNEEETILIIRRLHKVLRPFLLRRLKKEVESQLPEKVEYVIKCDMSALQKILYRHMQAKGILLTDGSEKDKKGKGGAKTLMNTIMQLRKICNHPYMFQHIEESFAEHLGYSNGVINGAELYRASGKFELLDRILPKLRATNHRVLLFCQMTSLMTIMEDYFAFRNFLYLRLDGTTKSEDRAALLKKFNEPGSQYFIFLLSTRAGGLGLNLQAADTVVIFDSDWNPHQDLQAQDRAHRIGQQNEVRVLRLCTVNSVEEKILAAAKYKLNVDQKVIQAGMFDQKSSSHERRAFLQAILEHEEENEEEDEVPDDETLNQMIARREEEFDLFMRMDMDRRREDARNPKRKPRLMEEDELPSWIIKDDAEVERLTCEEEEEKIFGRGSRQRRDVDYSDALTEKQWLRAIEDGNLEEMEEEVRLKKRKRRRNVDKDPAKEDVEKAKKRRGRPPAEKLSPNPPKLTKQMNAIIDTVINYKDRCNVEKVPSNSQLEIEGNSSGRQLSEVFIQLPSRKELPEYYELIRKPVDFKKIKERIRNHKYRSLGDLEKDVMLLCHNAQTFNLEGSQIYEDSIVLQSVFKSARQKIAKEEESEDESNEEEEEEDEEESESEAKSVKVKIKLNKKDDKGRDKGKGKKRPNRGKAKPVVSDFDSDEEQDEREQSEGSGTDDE
- assay-text: MSD SMARCA2 degradation in A549 cell line
- Type: cell-based
- experimental-setup: A549, A549 cells, 24 h
Dmax reference

Exercise: For CN(Cc1cccc(C#Cc2cc(NC(=O)Nc3cc(F)ncc3CO)ccn2)c1)C1CCN(C(=O)c2cccc3c2n(C)c(=O)n3C2CCC(=O)NC2=O)CC1 (stereo not shown) , what is its reported Dmax?
Key: < 50%

Further cases:
Exercise: Look up Dmax for this compound: Cn1c(=O)n(C2CCC(=O)NC2=O)c2ccc(CCCN3CCC(c4nccc(N5C6CCC5CN(c5cc(-c7ccccc7O)nnc5N)C6)n4)CC3)cc21 (stereo not shown)
Key: > 90%
